Taken from patent US20130259876A1.

Below, each of the binders is paired with its reported pKd value.
molecular target: T1, scHLA-B27-mmH (engineered HLA-B*27 ectodomain in-line fusion protein) (human (HLA-B*2705, beta-2 …)); test: SPR (Biacore), mAb captured, 37 C, HBST pH 7.4
T1 construct: also called soluble HLA-B*27 fusion protein
pKd: −log10 of the molar value.
test readout: pKd

[[record]]
binder = "H4H2534S (antibody, V domains shown) VH: EVQLVESGPGLVKPAQTLSLTCTVSGGSINSGGNYWSWIRQHPGKGLEWIGYIYYSGNTYYNPSLKSRVTISVDMSKNQFSLKLRSVTAADTAVYFCARDPRGITGTHHFDCWGQGTLVTVSS VL: EIVLTQSPGTLSLSPGERATLSCRTSQSVSSRYLAWYQQKPGQAPRLLIYDASSRATGIPDRFSGSGSGTDFTLTISRLEPEDFAVYYCQQFGPSLFTFGPGTKVDIK"
value_observed = 8.06

[[record]]
binder = "H4H2559P (antibody, V domains shown) VH: QVQLVQSGAEVKKPGASVKVSCKASGYTFTDYFLHWVRQAPGQGLEWVGWINPNSGGTNFAQKFQGRVTMTRDTSISTAYMDLSRLRSDDTAVYYCARKAGYTSSWFDYWGQGTLVTVSS VL: DIVMTQSPDSLAVSLGERATINCKSSQSILYSFNNKNYLAWYQQKIGQPPMLLIYWASTRESGVPDRFSGSGSGTDFTLTISRLQAEDVAVYYCQQYYSSITFGQGTRLEIK"
value_observed = 8.93

[[record]]
binder = "H4H2560P (antibody, V domains shown) VH: QVQLVQSGAEVKKPGASVKVSCKASGYTFTGYFIHWVRQAPGQGLEWVGWINPTSGGTNYAQKFQGRVTMTRDTSISTAYMEMNSLRSDDTAVYYCARKAGYTSTWFDYWGQGTTVTVSS VL: DIVMTQSPDSLTVSLGERATINCKSSQSVLYSSKNKNYLAWYQQKPGQPPNLLVYWASTRESGVPDRFSGSGSGTDFTLTISSLQAEDVAVYYCQQYYSMITFGQGTRLEIK"
value_observed = 8.71

